B1: TPR t1 (parent)
chain: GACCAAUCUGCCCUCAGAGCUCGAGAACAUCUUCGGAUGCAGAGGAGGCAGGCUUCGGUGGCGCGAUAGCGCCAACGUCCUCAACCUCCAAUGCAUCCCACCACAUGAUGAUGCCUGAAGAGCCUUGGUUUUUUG

Variants of: B1
Assay: polymerase ribozyme fitness, log enrichment relative to wild type (log ratio); higher = more active; in vitro selection for triplet polymerase activity
Binning rule for recorded polymerase ribozyme fitness (log ratio): low (below -4), moderate (-4 to below -2), high (-2 or more)

Class? Entry: A84C C98U
high

// next record G57U G60A C114A U129A
moderate

// next record C11A G52C U54C C94U G120C
high

// next record G44C C53U C86A A95U C101U
moderate

// next record G42C G63A C88U
moderate

// next record G60U C124G
high

// next record C8G G58C A75C A108U U132A
low

// next record G110A C124G G128C
moderate

// next record A84G U106G
moderate

// next record C12G C64G
low

// next record U55G C62G C123U
high

// next record C8A A26U C94U C124G U125G G127U
high

// next record A46U G122A
moderate

// next record A50U C72U
high

// next record C28A U54C U106C
low

// next record A27U C53U G77A
moderate

// next record C40G C49U A84U
moderate

// next record U32G A37G A74G A111U U133C
low

// next record C49U C72U C115U C123G
moderate

// next record C34G A43G C53A G71A A111C C123G
low

// next record C28A A46U U54G C73U C82G A90G C123U
low

// next record A16G C70U C115A U125C
moderate

// next record G25U G69U
low

// next record U78C A84G C97G
low

// next record G47U G61C
moderate

// next record C88G
high

// next record C20U G42A U106A G113C
moderate

// next record C40G C53A C123G
high

// next record G71U C73G A95C C124U G128U U129C
low

// next record G48U C88U
high

// next record C12U G122A
high

// next record G52A G61C
low

// next record G60C A74C
low

// next record C104G G113C
low

// next record C13G G120U
high

// next record A16U C34A U109G C123A U129G
low

// next record C4U U54A C62G G93C G120U U130C
low

// next record A6G C13U C102U G122A
moderate

// next record C70U G128A
moderate

// next record C31U U32G G35U G61U A91C A121U
low

// next record C3A C114U
moderate

// next record C89A G93A G120A
high

// next record C64U C114U U125A
moderate

// next record C97U U129A
moderate
